Where do the numbers come from? From paper PMC11812931.

- TEST DETAILS: MPKF phase I two-period crossover food effect pharmacokinetic study
- Type: in vivo, human
- REPORTED CONDITIONS: human, plasma, oral, 120 mg, C max, Median [Min, Max], 120 mg MDMA HCl, Fasted
MEASURED PROPERTY: Cmax (ng/mL)
Give bare numbers, in ng/mL.

Can you share its Cmax? I mean this molecule: CNC(C)Cc1ccc2c(c1)OCO2 (centres unmarked) 234

Please look at the following molecule next.
Any idea what Cmax was measured for CC(N)Cc1ccc2c(c1)OCO2 (centres unmarked) ? 12.5

----------
Task for the reader: assign each of the following compounds its reported AUC(0-inf).
- TEST DETAILS: MPKF phase I two-period crossover food effect pharmacokinetic study
- Assay type: in vivo, human
- REPORTED CONDITIONS: human, plasma, po, 120 mg, AUC0–inf, Geo. Mean (Geo. CV%), single oral 120 mg MDMA HCl, Fasted, N = 15
One number for each entry, in ng·h/mL.

Request the reported AUC(0-inf) associated with CNC(C)Cc1ccc2c(c1)OCO2 (centres unmarked) 3390

Below: the item to evaluate.
Find the recorded AUC(0-inf) belonging to CC(N)Cc1ccc2c(c1)OCO2 (centres unmarked) and report it. 330

----------
- TEST DETAILS: MPKF phase I two-period crossover food effect pharmacokinetic study
- Assay type: in vivo, human
- REPORTED CONDITIONS: human, plasma, oral, 120 mg, AUC0–inf, Median [Min, Max], 120 mg MDMA HCl, Fed
MEASURED PROPERTY: AUC(0-inf) (µg·h/mL)
One number for each entry, in µg·h/mL.

Entry CC(N)Cc1ccc2c(c1)OCO2 (stereo not shown) has what AUC(0-inf)? 0.343

----------
- TEST DETAILS: PopPK model of MDMA and MDA
- Format: in vivo, human
- REPORTED CONDITIONS: human, plasma, oral
MEASURED PROPERTY: Vd (L)
One number for each entry, in L.

Query: Vd; subject: CC(N)Cc1ccc2c(c1)OCO2 (stereo not shown) 20.8

----------
- TEST DETAILS: MPKF phase I two-period crossover food effect pharmacokinetic study
- Assay type: in vivo, human
- REPORTED CONDITIONS: human, plasma, oral, 120 mg, AUC0–inf, Median [Min, Max], 120 mg MDMA HCl, Fasted
Would you mind telling me the reported AUC(0-inf) of each entry?
Give bare numbers, in µg·h/mL.

Item CNC(C)Cc1ccc2c(c1)OCO2 (centres unmarked) [MDMA, 3,4‐methylenedioxymethamphetamine] has what recorded AUC(0-inf)? 3.73

---
Which AUC(0-inf) is reported for this compound? CC(N)Cc1ccc2c(c1)OCO2 (centres unmarked) [MDA, 3,4‐methylenedioxyamphetamine] 0.358

----------
- TEST DETAILS: PopPK model of MDMA and MDA
- Type: in vivo, human
- REPORTED CONDITIONS: human, plasma, oral
MEASURED PROPERTY: clearance (mL/min)
One number for each entry, in mL/min.

Form field: reported clearance of CC(N)Cc1ccc2c(c1)OCO2 (stereo not shown) [MDA, 3,4‐methylenedioxyamphetamine] 582
